assayComment: Anticancer activity against human Glioma cells assessed as growth inhibition after 72 hrs by MTT assay
Type: functional, cell-based
reportedMetric: IC50 (µM)
The reply should contain only the number, in µM.

Req: For the molecule shown here, C[C@]12O[C@@H]1CC[C@@]1(C)O[C@@H]1[C@H]1OC(=O)[C@@H](CN3CCN(c4ccccc4)CC3)[C@@H]1C[C@H]2O , give the reported IC50.
Resp: 35

Req: For the molecule shown here, C[C@]12O[C@@H]1CC[C@@]1(C)O[C@@H]1[C@H]1OC(=O)[C@@H](CN3CCN(c4ccccc4F)CC3)[C@@H]1C[C@H]2O , give the reported IC50.
Resp: 8

Req: For the molecule shown here, C/C1=C\CC[C@@]2(C)O[C@@H]2[C@H]2OC(=O)[C@@H](CN3CCCC3)[C@@H]2C[C@H]1O , give the reported IC50.
Resp: 5

Req: For the molecule shown here, C/C1=C\CC[C@@]2(C)O[C@@H]2[C@H]2OC(=O)[C@@H](CN3CCOCC3)[C@@H]2C[C@H]1O , give the reported IC50.
Resp: 5

Req: For the molecule shown here, C/C1=C\CC[C@@]2(C)O[C@@H]2[C@H]2OC(=O)[C@@H](CN3CCN(c4ccccc4F)CC3)[C@@H]2C[C@H]1O , give the reported IC50.
Resp: 6

Req: For the molecule shown here, C[C@]12O[C@@H]1CC[C@@]1(C)O[C@@H]1[C@H]1OC(=O)[C@@H](CN3CCOCC3)[C@@H]1C[C@H]2O , give the reported IC50.
Resp: 12

Req: For the molecule shown here, COc1ccc(N2CCN(C[C@@H]3C(=O)O[C@H]4[C@H]3C[C@@H](O)/C(C)=C/CC[C@@]3(C)O[C@H]43)CC2)cc1 , give the reported IC50.
Resp: 18

====

assayComment: Anticancer activity against mouse B16F10 cells assessed as growth inhibition after 72 hrs by MTT colorimetric assay
Type: functional, cell-based
appliedConditions: B16-F10, 72 h
pIC50: −log10 of the molar value.
Label scheme for pIC50: lower than 5 is no, 5 and above is yes.

Req: Please indicate if the recorded pIC50 for C[C@]12O[C@@H]1CC[C@@]1(C)O[C@@H]1[C@H]1OC(=O)[C@@H](CN3CCCCC3)[C@@H]1C[C@H]2O meets or exceeds 5.
Resp: no

Req: Please indicate if the recorded pIC50 for C[C@]12O[C@@H]1CC[C@@]1(C)O[C@@H]1[C@H]1OC(=O)[C@@H](CN3CCN(c4ccc(Cl)cc4)CC3)[C@@H]1C[C@H]2O meets or exceeds 5.
Resp: no

Req: Please indicate if the recorded pIC50 for C/C1=C\CC[C@@]2(C)O[C@@H]2[C@H]2OC(=O)[C@@H](CN3CCN(c4ccccc4F)CC3)[C@@H]2C[C@H]1O meets or exceeds 5.
Resp: yes

Req: Please indicate if the recorded pIC50 for C/C1=C\CC[C@@]2(C)O[C@@H]2[C@H]2OC(=O)[C@@H](CN(C)CCN(C)C)[C@@H]2C[C@H]1O meets or exceeds 5.
Resp: yes

Req: Please indicate if the recorded pIC50 for C/C1=C\CC[C@@]2(C)O[C@@H]2[C@H]2OC(=O)[C@@H](CN3CCOCC3)[C@@H]2C[C@H]1O meets or exceeds 5.
Resp: yes

Req: Please indicate if the recorded pIC50 for C=C1C(=O)O[C@H]2[C@H]1C[C@@H](O)/C(C)=C/CC[C@@]1(C)O[C@@H]21 meets or exceeds 5.
Resp: yes
